Reference source for all entries: patent US11492325B2

molecular target: hERG potassium channel (IKr) (Homo sapiens, UniProt Q12809); test: Automated patch clamp, hERG (IKr) expressed in CHO cells; conditions: hERG (IKr) IC50, CHO cells, Example 2
Sequence (Q12809 whole entry): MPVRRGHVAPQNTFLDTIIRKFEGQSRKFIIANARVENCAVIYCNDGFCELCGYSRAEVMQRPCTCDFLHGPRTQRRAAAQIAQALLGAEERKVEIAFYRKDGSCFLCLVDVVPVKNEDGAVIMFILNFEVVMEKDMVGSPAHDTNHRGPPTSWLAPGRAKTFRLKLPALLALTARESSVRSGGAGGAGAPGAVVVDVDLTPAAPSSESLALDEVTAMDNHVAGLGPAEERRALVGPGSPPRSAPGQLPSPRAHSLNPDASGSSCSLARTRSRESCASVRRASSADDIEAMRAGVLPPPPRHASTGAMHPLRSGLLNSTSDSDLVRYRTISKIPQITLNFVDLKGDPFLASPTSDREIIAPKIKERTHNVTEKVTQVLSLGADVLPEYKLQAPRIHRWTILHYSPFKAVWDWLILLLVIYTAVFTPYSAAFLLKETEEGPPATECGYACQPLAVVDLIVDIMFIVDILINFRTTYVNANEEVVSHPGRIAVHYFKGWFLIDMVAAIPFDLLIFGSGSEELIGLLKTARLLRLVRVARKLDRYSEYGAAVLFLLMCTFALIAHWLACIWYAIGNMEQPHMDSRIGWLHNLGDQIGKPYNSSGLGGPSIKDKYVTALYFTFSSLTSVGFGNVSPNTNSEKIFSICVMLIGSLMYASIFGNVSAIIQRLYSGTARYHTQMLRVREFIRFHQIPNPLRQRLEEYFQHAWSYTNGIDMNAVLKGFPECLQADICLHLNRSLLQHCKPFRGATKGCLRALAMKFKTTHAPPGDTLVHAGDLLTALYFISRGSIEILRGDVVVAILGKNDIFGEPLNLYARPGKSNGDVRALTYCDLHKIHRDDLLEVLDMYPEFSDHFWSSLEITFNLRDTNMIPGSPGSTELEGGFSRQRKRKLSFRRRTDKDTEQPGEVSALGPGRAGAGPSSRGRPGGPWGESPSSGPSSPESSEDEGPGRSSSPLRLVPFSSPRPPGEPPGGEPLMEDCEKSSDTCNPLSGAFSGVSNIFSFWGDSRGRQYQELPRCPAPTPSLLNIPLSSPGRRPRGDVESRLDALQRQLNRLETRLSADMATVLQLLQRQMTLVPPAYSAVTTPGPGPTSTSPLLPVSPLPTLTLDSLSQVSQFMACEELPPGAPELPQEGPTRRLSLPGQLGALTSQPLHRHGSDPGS
readout type: IC50 (µM)
// note: answer is a bare numeric in µM

Value (IC50, hERG potassium channel (IKr) (Homo sapiens, UniProt Q12809)) for record COCCNC(COc1cccc(C)c1C)c1ccccc1 (racemic) = 27.6

Value (IC50, hERG potassium channel (IKr) (Homo sapiens, UniProt Q12809)) for record Cc1ccncc1OCC(N)c1ccccc1.Cl (stereo not shown) = 11.2

Value (IC50, hERG potassium channel (IKr) (Homo sapiens, UniProt Q12809)) for record COCCNC(COc1ccccc1C(F)(F)F)c1ccccc1.Cl (stereo not shown) = 20.9

Value (IC50, hERG potassium channel (IKr) (Homo sapiens, UniProt Q12809)) for record COCCNC(COc1ccccc1C)c1ccccc1.Cl (stereo not shown) = 25.3

Value (IC50, hERG potassium channel (IKr) (Homo sapiens, UniProt Q12809)) for record Cc1cc(C)cc(OCC(N)C2CC2)c1.Cl (stereo not shown) = 45.8

Value (IC50, hERG potassium channel (IKr) (Homo sapiens, UniProt Q12809)) for record Cc1cc(C)cc(OCC(N)C2CCCCC2)c1.Cl (stereo not shown) = 4.9

Value (IC50, hERG potassium channel (IKr) (Homo sapiens, UniProt Q12809)) for record Cc1ccc(OCC(N)c2ccccc2)c(C)c1.Cl (stereo not shown) = 5.9

Value (IC50, hERG potassium channel (IKr) (Homo sapiens, UniProt Q12809)) for record Cc1cccc(C)c1OCC(C)N (racemic) [racemic Mexiletine] = 54

Value (IC50, hERG potassium channel (IKr) (Homo sapiens, UniProt Q12809)) for record COCCNC(COc1cc(C(F)(F)F)cc(C(F)(F)F)c1)c1ccccc1.Cl (stereo not shown) = 16.8

Value (IC50, hERG potassium channel (IKr) (Homo sapiens, UniProt Q12809)) for record Cc1cccc(OCC(N)c2ccccc2)c1C (stereo not shown) = 9.2

Value (IC50, hERG potassium channel (IKr) (Homo sapiens, UniProt Q12809)) for record COCCNC(COc1cc(C)cc(C)c1)c1ccccc1.Cl (stereo not shown) = 5.1

Value (IC50, hERG potassium channel (IKr) (Homo sapiens, UniProt Q12809)) for record Cl.NC(COc1cc(C(F)(F)F)cc(C(F)(F)F)c1)c1ccccc1 (stereo not shown) = 7.2
